system: HeLa cells; test: In vitro firefly luciferase (Fluc) expression after treatment with Fluc mRNA/amino lipidated peptoid formulations; assay type: cell-based; settings: peptoid:Fluc mRNA 5:1 w/w, 100 ng/well, 24 hours of treatment
property: Luciferase Expression (RLU) 24 h

>>> result("CCCCCCCCCCN(CC(N)=O)C(=O)CN(CCCCCCCCCC)C(=O)CN(CCc1ccccc1)C(=O)CN(CCc1ccccc1)C(=O)CN(CCN)C(=O)CN(CCc1ccccc1)C(=O)CN(CCc1ccccc1)C(=O)CN(CCN)C(=O)CN(CCc1ccccc1)C(=O)CN(CCc1ccccc1)C(=O)CN(CCN)C(=O)CN(CCc1ccccc1)C(=O)CN(CCc1ccccc1)C(=O)CN(CCN)C(=O)CN(CCc1ccccc1)C(=O)CN(CCc1ccccc1)C(=O)CNCCN")
"5.71E+02 RLU"
>>> result("CCCCCCCCCCN(CC(N)=O)C(=O)CN(CCCCCCCCCC)C(=O)CN(CCCCCCCCCC)C(=O)CN(CCCCCCCCCC)C(=O)CN(CCc1ccccc1)C(=O)CN(CCc1ccccc1)C(=O)CN(CC1CCCN1)C(=O)CN(CCc1ccccc1)C(=O)CN(CCc1ccccc1)C(=O)CN(CC1CCCN1)C(=O)CN(CCc1ccccc1)C(=O)CN(CCc1ccccc1)C(=O)CN(CC1CCCN1)C(=O)CN(CCc1ccccc1)C(=O)CN(CCc1ccccc1)C(=O)CNCC1CCCN1 (centres unmarked)")
"1.60E+03 RLU"
>>> result("CCCCCCCCCCN(CC(N)=O)C(=O)CN(CCCCCCCCCC)C(=O)CN(CCCCCCCCCC)C(=O)CN(CCCCCCCCCC)C(=O)CN(CCc1ccccc1)C(=O)CN(CCc1ccccc1)C(=O)CN(CCCN)C(=O)CN(CCc1ccccc1)C(=O)CN(CCc1ccccc1)C(=O)CN(CCCN)C(=O)CN(CCc1ccccc1)C(=O)CN(CCc1ccccc1)C(=O)CN(CCCN)C(=O)CN(CCc1ccccc1)C(=O)CN(CCc1ccccc1)C(=O)CNCCCN")
"6.72E+03 RLU"
>>> result("CCCCCCCCCCN(CC(N)=O)C(=O)CN(CCCCCCCCCC)C(=O)CN(CCCCCCCCCC)C(=O)CN(CCCCCCCCCC)C(=O)CN(CCCCCCCCCC)C(=O)CN(CCc1ccccc1)C(=O)CN(CCc1ccccc1)C(=O)CN(CCN)C(=O)CN(CCc1ccccc1)C(=O)CN(CCc1ccccc1)C(=O)CN(CCN)C(=O)CN(CCc1ccccc1)C(=O)CN(CCc1ccccc1)C(=O)CNCCN")
"1.09E+04 RLU"
>>> result("CCCCCCCCCCN(CC(N)=O)C(=O)CN(CCCCCCCCCC)C(=O)CN(CCCCCCCCCC)C(=O)CN(CCCCCCCCCC)C(=O)CN(CCc1ccccc1)C(=O)CN(CCc1ccccc1)C(=O)CN(CCN)C(=O)CN(CCc1ccccc1)C(=O)CN(CCc1ccccc1)C(=O)CN(CCN)C(=O)CN(CCc1ccccc1)C(=O)CN(CCc1ccccc1)C(=O)CNCCN")
"1.33E+04 RLU"
>>> result("CCCCCCCCCCN(CC(N)=O)C(=O)CN(CCCCCCCCCC)C(=O)CN(CCCCCCCCCC)C(=O)CN(CCCCCCCCCC)C(=O)CN(CCc1ccccc1)C(=O)CN(CCc1ccccc1)C(=O)CN(CC1CCCN1)C(=O)CN(CCc1ccccc1)C(=O)CN(CCc1ccccc1)C(=O)CN(CC1CCCN1)C(=O)CN(CCc1ccccc1)C(=O)CN(CCc1ccccc1)C(=O)CNCC1CCCN1 (centres unmarked)")
"2.71E+03 RLU"
>>> result("CCCCCCCCCCN(CC(=O)N(CC(=O)N(CCCCCCCCCC)CC(=O)N(CC(N)=O)CC(CC)CCCC)CC(CC)CCCC)C(=O)CN(CCc1ccccc1)C(=O)CN(CCc1ccccc1)C(=O)CN(CCN)C(=O)CN(CCc1ccccc1)C(=O)CN(CCc1ccccc1)C(=O)CN(CCN)C(=O)CN(CCc1ccccc1)C(=O)CN(CCc1ccccc1)C(=O)CNCCN (centres unmarked)")
"3.43E+04 RLU"

Query compound follows.
Item: CCCCCCCCCCN(CC(N)=O)C(=O)CN(CCCCCCCCCC)C(=O)CN(CCCCCCCCCC)C(=O)CN(CCCCCCCCCC)C(=O)CN(CCCCCCCCCC)C(=O)CN(CCc1ccccc1)C(=O)CN(CCc1ccccc1)C(=O)CN(CCN)C(=O)CN(CCc1ccccc1)C(=O)CN(CCc1ccccc1)C(=O)CN(CCN)C(=O)CN(CCc1ccccc1)C(=O)CN(CCc1ccccc1)C(=O)CN(CCN)C(=O)CN(CCc1ccccc1)C(=O)CN(CCc1ccccc1)C(=O)CNCCN Test system: HeLa cells Read-out: Luciferase Expression (RLU) 24 h Value: ?
1.24E+04 RLU
